# measured-on: Dopamine beta hydroxylase (Homo sapiens, UniProt P09172)
# Construct: 125 μl of plasma; tissue Instituto Português do Sangue Transplantação; host or cells: human plasma from healthy donors
# Sequence (P09172 40-617 limits assumed): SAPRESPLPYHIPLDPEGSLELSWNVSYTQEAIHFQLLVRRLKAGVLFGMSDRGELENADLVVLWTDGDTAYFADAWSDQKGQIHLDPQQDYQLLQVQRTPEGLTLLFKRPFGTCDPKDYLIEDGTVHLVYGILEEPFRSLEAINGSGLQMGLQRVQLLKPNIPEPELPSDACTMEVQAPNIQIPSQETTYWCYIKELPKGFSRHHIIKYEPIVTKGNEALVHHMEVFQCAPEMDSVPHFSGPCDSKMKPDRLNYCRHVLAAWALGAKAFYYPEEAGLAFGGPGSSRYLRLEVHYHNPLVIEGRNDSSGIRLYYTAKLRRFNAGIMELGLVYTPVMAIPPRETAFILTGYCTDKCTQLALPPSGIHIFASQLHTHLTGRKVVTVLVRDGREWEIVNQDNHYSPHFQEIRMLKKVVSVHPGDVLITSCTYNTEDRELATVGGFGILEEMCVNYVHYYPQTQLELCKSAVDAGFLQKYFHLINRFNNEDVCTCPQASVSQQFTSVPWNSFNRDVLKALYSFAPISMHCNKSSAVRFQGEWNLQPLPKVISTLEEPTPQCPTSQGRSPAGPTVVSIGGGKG
# assay-notes: Dopamine beta hydroxylase activity in human plasma
# Format: biochemical
# recorded-conditions: inhibitor 0.1 μM, re-tested under the same experimental conditions, asterisked data believed to be correct
Marks after values point to notes of the source that are not given here.
Below: a set of entries, each annotated with reported Plasma (0.1 μM), activity in % of control, re-test (asterisked).
parameter: Plasma (0.1 μM), activity in % of control, re-test (asterisked)

{"columns": ["compound", "observed-value"],
 "data": [
  ["Cn1c(CC(=O)NC2CCOCC2)c2n(c1=S)C[C@@]1(c3cc(Br)ccc3F)C[C@@H]21", "1.4* % of control"],
  ["Cn1c(CC(=O)Nc2ncco2)c2n(c1=S)C[C@@H](c1c(F)c(F)cc(F)c1F)C2", "16.6* % of control"],
  ["Cn1c(CC(=O)N[C@@H]2CCOC2)c2n(c1=S)C[C@@H](c1c(F)c(F)cc(F)c1F)C2", "37.6* % of control"],
  ["O=C(Cc1[nH]c(=S)n2c1C[C@H](c1c(F)c(F)cc(F)c1F)C2)N[C@@H]1CCOC1", "22.5* % of control"],
  ["Cn1c(CC(=O)NCC(F)(F)F)c2n(c1=S)C[C@@H](c1c(F)c(F)cc(F)c1F)C2", "53.3* % of control"],
  ["Cn1c(CC(=O)N2CCCCC2)c2n(c1=S)C[C@@]1(c3cc(Br)ccc3F)C[C@@H]21", "15.0* % of control"],
  ["CN(C(=O)Cc1[nH]c(=S)n2c1C[C@@H](c1c(F)ccc(Br)c1F)C2)C1CCOC1 (some centres unmarked)", "28.0* % of control"],
  ["Cl.Fc1cc(F)c(F)c([C@H]2Cc3c(CCN4CCOCC4)[nH]c(=S)n3C2)c1F", "84.9* % of control"]
]}

* * *

# measured-on: Dopamine beta hydroxylase (Homo sapiens, UniProt P09172)
# Construct: 125 μl of plasma; tissue Instituto Português do Sangue Transplantação; host or cells: human plasma from healthy donors
# assay-notes: Dopamine beta hydroxylase activity in human plasma
# Assay type: biochemical
# recorded-conditions: inhibitor 0.01 μM
parameter: Plasma (0.01 μM), activity in % of control

{"columns": ["molecule", "observed-value"],
 "data": [
  ["Cn1ccnc1CCc1[nH]c(=S)n2c1C[C@H](c1c(F)c(F)cc(F)c1F)C2", "99.8 % of control"],
  ["CC(C)NCCCc1[nH]c(=S)n2c1C[C@H](c1c(F)ccc(F)c1F)C2", "63.3 % of control"],
  ["CN(C(=O)Cc1[nH]c(=S)n2c1[C@@H]1C[C@]1(c1c(F)ccc(Cl)c1F)C2)C1CCOC1 (stereo partly shown)", "66.9 % of control"],
  ["Cn1c(CC(=O)NCc2ccc3c(c2)OCO3)c2n(c1=S)C[C@H](c1c(F)ccc(Cl)c1F)C2", "30.2 % of control"],
  ["Cn1c(CC(=O)N[C@@H]2CCOC2)c2n(c1=S)C[C@@H](c1c(F)c(F)cc(F)c1F)C2", "38.0 % of control"],
  ["Cn1c(CC(=O)N2CCC[C@H]2C(F)(F)F)c2n(c1=S)C[C@@H](c1c(F)ccc(F)c1F)C2", "98.2 % of control"],
  ["CCOC(=O)C(Cc1[nH]c(=S)n2c1C[C@H](c1c(F)c(F)cc(F)c1F)C2)C(=O)OCC", "85.2 % of control"],
  ["O=C(O)Cc1[nH]c(=S)n2c1C[C@@H](c1c(F)ccc(Cl)c1F)C2", "102.6 % of control"],
  ["Cn1c(CC(=O)N2CC[C@@H](C#N)C2)c2n(c1=S)C[C@@H](c1c(F)ccc(F)c1F)C2", "75.0 % of control"],
  ["Cn1c(CCNC(C)(C)C)c2n(c1=S)C[C@@H](c1c(F)ccc(F)c1F)C2", "94.3 % of control"],
  ["Cn1c(CC(=O)N2CCC[C@H]2CF)c2n(c1=S)C[C@@H](c1c(F)ccc(F)c1F)C2", "89.2 % of control"],
  ["Cn1c(CCC(=O)O)c2n(c1=S)C[C@@H](c1c(F)c(F)cc(F)c1F)C2", "84.1 % of control"],
  ["Cl.Cn1c(CC(=O)NCc2ccccn2)c2n(c1=S)C[C@@]1(c3cc(Cl)ccc3F)C[C@@H]21", "32.8 % of control"],
  ["Cn1c(CC(N)=O)c2n(c1=S)C[C@@]1(c3cc(Br)ccc3F)C[C@@H]21", "92.8 % of control"],
  ["O=C(Cc1[nH]c(=S)n2c1C[C@@H](c1c(F)ccc(Cl)c1F)C2)N[C@@H]1CCCOC1", "66.5 % of control"],
  ["CN(C)C(=O)Cc1[nH]c(=S)n2c1C[C@H](c1c(F)c(F)cc(F)c1F)C2", "92.0 % of control"]
]}
